- Protocol Details: Drug uptake in plasma of rat model of cerulean-induced acute pancreatitis at 20 mg/kg, iv administered as bolus dose followed by 2.2 mg/kg/hr, iv infusion for 5 hrs
- Assay type: ADME, organism-based
Test Readout: concentration at 5 h
Express the reported value numerically, then name its unit.

[ask] Entry `C[C@@H](Oc1cc2onc(CCC(=O)O)c2cc1Cl)c1ccccn1.NCCO` needs its concentration at 5 h filled in; supply it.
[reply] 600 µM

====

Record form. Attribute: solubility at 24 h. Fill in for each entry.
- Protocol Details: Solubility of the compound in saline measured after 24 hrs
- Assay type: physicochemical

[ask] Entry `Cc1ccc([C@@H](C)Oc2cc3onc(CCC(=O)O)c3cc2Cl)nc1.NC(CO)(CO)CO` needs its solubility at 24 h filled in; supply it.
[reply] > 860 µg/mL

[ask] Entry `C[C@@H](Oc1cc2onc(CCC(=O)O)c2cc1Cl)c1ccccn1.NC(CO)(CO)CO` needs its solubility at 24 h filled in; supply it.
[reply] > 7440 µg/mL

[ask] Entry `C[C@@H](Oc1cc2onc(CCC(=O)O)c2cc1Cl)c1ccc(Cl)cn1.NC(CO)(CO)CO` needs its solubility at 24 h filled in; supply it.
[reply] > 620 µg/mL

[ask] Entry `CCOc1cc2oc(=O)n(CCC(=O)O)c2cc1Cl.NC(CO)(CO)CO` needs its solubility at 24 h filled in; supply it.
[reply] > 1880 µg/mL

[ask] Entry `NC(CO)(CO)CO.O=C(O)CCn1c(=O)oc2cc(OCC3CC3)c(Cl)cc21` needs its solubility at 24 h filled in; supply it.
[reply] > 2060 µg/mL
